Test system: 786-O
experimentSummary: GI50, drug alone; higher = less potent
recordedConditions: treatment: drug alone; 5 days
Entries annotated with measured GI50, drug alone

Would you please look over these solved cases?
- compound: "CN(C)CC[C@H](CSc1ccccc1)Nc1ccc(S(=O)(=O)NC(=O)c2ccc(N3CCN(Cc4ccccc4-c4ccc(Cl)cc4)CC3)cc2)cc1[N+](=O)[O-]"
  GI50, drug alone: "501 nM"
- compound: "CC(C)(C)c1cnc(CSc2cnc(NC(=O)C3CCNCC3)s2)o1"
  GI50, drug alone: "134 nM"
- compound: "Nc1ncnc2c1c(-c1cccc(OCc3ccccc3)c1)cn2[C@H]1C[C@H](CN2CCCC2)C1"
  GI50, drug alone: "5940 nM"
- compound: "COc1cc(Nc2ncc(F)c(Nc3ccc4c(n3)N(COP(=O)(O)O)C(=O)C(C)(C)O4)n2)cc(OC)c1OC"
  GI50, drug alone: "1160 nM"

Next up:
Prompt: Quick check: GI50, drug alone of Cc1cc(Nc2nc(N[C@@H](C)c3ccc(F)cc3)c(C#N)cc2F)n[nH]1 ?
Completion: 259 nM

====

Entries annotated with measured GI50 of drug
Tested on: CAKI-1
experimentSummary: GI50 of drug in presence of dasatinib; higher = less potent
recordedConditions: treatment: drug + dasatinib (fixed dose, not stated); 5 days
Provide only the numeric value, understood in µM.

Would you please look over these solved cases?
- compound: "Nc1ccc(C(=O)Nc2cccc(-c3nc(N4CCOCC4)c4oc5ncccc5c4n3)c2)cn1 + Cc1nc(Nc2ncc(C(=O)Nc3c(C)cccc3Cl)s2)cc(N2CCN(CCO)CC2)n1 [dasatinib]"
  resultUnits: "µM"
  GI50 of drug: 0.256
- compound: "CCCCOc1c(C(=O)c2c(F)cc(C)cc2F)cnc2[nH]ncc12 + Cc1nc(Nc2ncc(C(=O)Nc3c(C)cccc3Cl)s2)cc(N2CCN(CCO)CC2)n1 [dasatinib]"
  resultUnits: "µM"
  GI50 of drug: 2.58
- compound: "CNC(=O)c1cc(Oc2ccc(NC(=O)Nc3ccc(Cl)c(C(F)(F)F)c3)cc2)ccn1.Cc1ccc(S(=O)(=O)O)cc1 [Sorafenib (Nexavar)] + Cc1nc(Nc2ncc(C(=O)Nc3c(C)cccc3Cl)s2)cc(N2CCN(CCO)CC2)n1 [dasatinib]"
  resultUnits: "µM"
  GI50 of drug: 4.81

Next up:
Prompt: Quick check: GI50 of drug of CC(C)(C)Cn1c(N)nc2ccc(-c3[nH]c(C(C)(C)C)nc3-c3ccc(F)cc3)nc21.CS(=O)(=O)O.CS(=O)(=O)O + Cc1nc(Nc2ncc(C(=O)Nc3c(C)cccc3Cl)s2)cc(N2CCN(CCO)CC2)n1 [dasatinib] ?
Completion: 4.37

====

Entries annotated with measured AUC of dose-response viability curve
Tested on: CAKI-1
experimentSummary: AUC of dose-response viability curve, drug alone (arbitrary (AUC of normalised viability)); higher = less growth inhibition
recordedConditions: treatment: drug alone; 5 days

- compound: "CC1(COc2ccc3c(c2)ncn3-c2ccc3cccc(N4CCC(N)CC4)c3n2)COC1"
  propertyName: "AUC of dose-response viability curve"
  value: 2.69
- compound: "Cc1ccc(Nc2nccc(N(C)c3ccc4c(C)n(C)nc4c3)n2)cc1S(N)(=O)=O.Cl [Pazopanib HCl]"
  propertyName: "AUC of dose-response viability curve"
  value: 3.09
- compound: "Cn1cnc(N)c2ncnc1-2 [3-Methyladenine]"
  propertyName: "AUC of dose-response viability curve"
  value: 3.74
- compound: "O=C(NC1CCNCC1)c1n[nH]cc1NC(=O)c1c(Cl)cccc1Cl [AT7519]"
  propertyName: "AUC of dose-response viability curve"
  value: 2.23

Prompt: Quick check: AUC of dose-response viability curve of CN1CCN(c2nc(C3=C(c4c[nH]c5ccccc45)C(=O)NC3=O)c3ccccc3n2)CC1 [Sotrastaurin (AEB071)] ?
Completion: 3.38

Prompt: Quick check: AUC of dose-response viability curve of CNC(=O)c1ccc(-c2cnc3ncc(Cc4ccc5ncccc5c4)n3n2)cc1F ?
Completion: 3.25

Prompt: Quick check: AUC of dose-response viability curve of CCOc1cc2ncc(C#N)c(Nc3ccc(OCc4ccccn4)c(Cl)c3)c2cc1NC(=O)/C=C/CN(C)C [Neratinib (HKI-272)] ?
Completion: 2.11

Prompt: Quick check: AUC of dose-response viability curve of c1ccc2c(-c3cnn4cc(-c5ccc(N6CCNCC6)cc5)cnc34)ccnc2c1 ?
Completion: 2.96

Value source: the supplement of paper PMC8149375
